# System: Mus musculus
# experimental.details: Plasma concentration in Swiss mouse at 50 mg/kg, po administered as single dose
# Format: ADME, organism-based
# Design: dose 50 mg/kg, route oral
# condition.label: in vivo
concentration listing for selected compounds.
Output should be the measured figure followed by the unit it is expressed in.

I am curious: what concentration value has been reported for `Cc1cc(Nc2ccc3ccccc3c2)n2ncnc2n1` ? 2000 nM

How about `Cc1cc(Nc2ccc3cc4ccccc4cc3c2)n2ncnc2n1` ? 2000 nM

Now the same for `Cc1cc(Nc2ccc(C(F)(F)F)cc2)n2ncnc2n1` 27600 nM

---

List of IC50 tested on Dihydroorotate dehydrogenase (quinone), mitochondrial (Homo sapiens, UniProt Q02127).
Sequence (Q02127 whole entry): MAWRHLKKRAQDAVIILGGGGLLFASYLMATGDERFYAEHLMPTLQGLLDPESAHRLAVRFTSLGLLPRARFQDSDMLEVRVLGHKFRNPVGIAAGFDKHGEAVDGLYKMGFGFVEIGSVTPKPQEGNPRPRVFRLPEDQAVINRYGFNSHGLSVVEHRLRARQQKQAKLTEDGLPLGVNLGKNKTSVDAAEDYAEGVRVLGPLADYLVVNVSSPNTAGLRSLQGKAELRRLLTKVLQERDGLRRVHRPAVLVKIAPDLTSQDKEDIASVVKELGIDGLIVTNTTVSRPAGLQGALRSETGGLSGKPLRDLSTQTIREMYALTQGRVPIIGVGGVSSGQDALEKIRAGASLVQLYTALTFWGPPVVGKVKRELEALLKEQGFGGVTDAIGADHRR

Consider the compound shown here: `Cc1cc(Nc2ccc(Cl)cc2)n2ncnc2n1` What is its recorded IC50? > 100 µM

Follow-up entry: `Cc1cc(Nc2ccc(Br)cc2)n2ncnc2n1` > 100 µM

Same for `Cc1cc(Nc2ccc(C)c(F)c2)n2ncnc2n1` > 100 µM
